B1: Azoarcus group I ribozyme (parent)
chain: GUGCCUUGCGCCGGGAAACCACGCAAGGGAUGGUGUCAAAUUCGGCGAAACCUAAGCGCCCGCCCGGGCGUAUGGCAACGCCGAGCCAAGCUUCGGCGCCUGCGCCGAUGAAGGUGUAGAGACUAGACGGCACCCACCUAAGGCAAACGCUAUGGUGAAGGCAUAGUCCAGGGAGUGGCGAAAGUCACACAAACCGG

Variants of: B1
Assay: reverse-splicing fitness (ratio to wild type); higher = more active; in vitro selection; Mg2+ level not given
Each record's class is read off its reverse-splicing fitness using these ranges: c1: < 0.005; c2: ≥ 0.005 and < 0.02; c3: ≥ 0.02

variant_label	label_value
A111U A120U A145U C150G C169G	c2
C82G A111G A120C A145G U176A	c3
A111C A145G C150U C169G U176C	c3
C82G A111U A120C A145G C150U U176G	c2
C82G A111G A120G A145U U176G	c2
C82A A111U A145G C150U U176A	c3
C82G A111C A120G A145G C150G C169G	c2
A111C A120U A145U C169A U176A	c1
A111G A120C C150G C169A U176G	c1
C82U A111U A120U C150U C169A	c1
C82G A111G C150U	c3
C82U A111U A120G A145U C150U C169U U176G	c1
C82G A111U A120C A145U C150U C169A U176C	c2
C82G A111C A145U C150U C169U U176A	c2
